Entries annotated with measured melting point

> print(dat)
                      molecule  assay.value
1  CNc1nc(Br)cn2cc(C(N)=O)nc12       312 °C

Prompt line: Entry COc1ccccc1C1CSc2ccccc2NC1=O (stereo unspecified) has what melting point?
Response line: 219 °C

Prompt line: Continue with O=Cc1cccc(-c2cnco2)n1
Response line: 151 °C

Prompt line: Continue with O=C(O)c1cccc(-c2cccc(OCc3ccc(Cl)cc3Cl)n2)c1
Response line: 186 to 187 °C

Prompt line: Continue with O=C(NC(=O)c1ccccc1Cl)Nc1cc(C(F)(F)F)c(F)cc1Br
Response line: 192 °C

Prompt line: Continue with CCOC(=O)c1cn(-c2nc(F)cs2)c2nc(N3CCC(NC(=O)OC(C)(C)C)C3)ccc2c1=O (stereo unspecified)
Response line: 233 to 234 °C

Prompt line: Continue with Nc1cnc(-c2cc(Cl)cc(Cl)c2Cl)c(N)n1
Response line: 178 to 180 °C

Prompt line: Continue with CCOC(=O)Nn1cccc1C(=O)c1ccccc1F
Response line: 78 to 80 °C

Prompt line: Continue with FS(F)(F)(F)(Cl)c1cccc(S(F)(F)(F)(F)Cl)c1
Response line: 82 to 83.5 °C

Prompt line: Continue with O=C(NCCc1ccc(O)c(O)c1)OCc1ccccc1
Response line: 129 to 130 °C

Prompt line: Continue with Nc1ccc(-c2ncnn2-c2ccccc2F)cc1
Response line: 139 to 141 °C

Prompt line: Continue with Cc1nc2cc(-c3ccccc3)nn2c2c1CCN2C(C)(C)C
Response line: 244 to 248 °C

Prompt line: Continue with Cc1ccc(S(=O)(=O)N(C)c2ccccc2[N+](=O)[O-])cc1
Response line: 132 °C

Prompt line: Continue with CC1CCC(NS(N)(=O)=O)CC1 (stereo unspecified)
Response line: 109 to 110 °C

Prompt line: Continue with CCOC(=O)c1c(C(C)(C)O)nc(CO)n1Cc1ccc(-c2ccccc2-c2nnnn2C(c2ccccc2)(c2ccccc2)c2ccccc2)cc1
Response line: 151 to 152 °C

Prompt line: Continue with O=C(O)c1ccc2c(c1)Sc1ccccc1CC2
Response line: 196 to 198 °C

Prompt line: Continue with c1cncc(N=C2SCC3Cc4ccccc4N23)c1 (racemic)
Response line: 131 °C

Prompt line: Continue with O=c1[nH]c2ncc(-c3cncnc3)nc2n1CC1CCCCC1
Response line: > 260 °C

Prompt line: Continue with CCCCCCCCC1CC(Cn2cncn2)(c2ccc(OC)cc2)N(C)O1 (stereo unspecified)
Response line: 89 to 91 °C

Prompt line: Continue with O=C(NC1CCOCC1)c1ccc(-c2ccc3nnn(Cc4ccc5ncccc5c4)c3n2)cc1
Response line: 202 to 205 °C

Prompt line: Continue with O=c1ccc(-c2ccccc2Cl)n[nH]1
Response line: 214 to 216 °C

Prompt line: Continue with CC(C)(C)c1ccc(NC=CS(=O)(=O)F)cc1
Response line: 67 to 70.5 °C

Prompt line: Continue with COc1cc2ncc(C#N)c(Nc3cccc(C#N)c3)c2cc1OC
Response line: 285 to 288 °C

Prompt line: Continue with COC(=O)C(Cc1ccc(OCCn2ccc3ccc(C(=O)C4CC4)nc32)cc1)OCC(F)(F)F (stereo unspecified)
Response line: 123 °C

Prompt line: Continue with CCOC(=O)c1ccc(N2CCN(C(=O)CCc3cc(C(C)(C)C)c(O)c(C(C)(C)C)c3)CC2)cc1
Response line: 85 to 86 °C
